Reported ELISA (Avg) values follow for various binders
target: T1, SARS-CoV-2 Spike Glycoprotein S1 (subunit 1) (SARS-CoV-2, UniProt P0DTC2 16-685); experiment: screening phage ELISA, mean
T1 construct: also called S1 Monomer; SARS-CoV-2 S1

| binder | ELISA (Avg) |
| --- | --- |
| 1-3 (antibody, V domains shown) VH: EVQLLESGGGLVQPGGSLRLSCAASGFTFSSQAMSWVRQAPGKGLEWVSAISGSGGGTYYADSVKGRFTISRDNSKNTLYLQMNSLRAEDTAVYYCAKDRRFGEFDPWGQGTLVTVSS VL: QSALTQPASVSGSPGQSITISCTGISSDVGSYNLVSWYQQHPGKAPKLMIYEGTKRPSGVSNRFSGSKSGNTASLTISGLQAEDEADYYCCSYAGSSSFVVFGGGTKLTVL | 23.9 |
| 1-12 (antibody, V domains shown) VH: EVQLLESGGGLVQPGGSLRLSCAASGITFSSYAMSWVRQAPGKGLEWVSGISGSGGSTYYADSVKGRFTISRDNSKNTLYLQMNSLRAEDTAVYYCAKHGSGTIFGVVIAKYYFDYWGQGTLVTVSS VL: QSALTQPASVSGSPGQSITISCTGTSSDVGHYNLVSWYQQHPGKAPKLMIYEGTKRPSGVSNRFSGSKSGNTASLTISGLQAEDEADYYCCSYAGSSSFVVFGGGTKLTVL | 25.7 |
| 1-52 (antibody, V domains shown) VH: EVQLLESGGGLVQPGGSLRLSCAASGFTFSNYAMSWVRQAPGKGLEWVSAISGSAGSTYYADSVKGRFTISRDNSKNTLYLQMNSLRAEDTAVYYCARVRQGLRRTWYYFDYWGQGTLVTVSS VL: QSALTQPASVSGSPGQSITISCTGTSSDVGSSNLVSWYQQHPGKAPKLMIYEGSKRPSGVSNRFSGSKSGNTASLTISGLQAEDEADYYCCSYAGSLYVFGGGTKLTVL | 3.5 |
| 1-9 (antibody, V domains shown) VH: EVQLLESGGGLVQPGGSLRLSCAASGFTFSSYDMSWVRQAPGKGLEWVSVISGSGGSTYYADSVKGRFTISRDNSKNTLYLQMNSLRAEDTAVYYCAKGPLVGWYFDLWGQGTLVTVSS VL: QSALTQPASVSGSPGQSITISCTGTSSDVGDYNLVSWYQQHPGKAPKLMIYEGSNRPSGVSNRFSGSKSGNTASLTISGLQAEDEADYYCCSYAGSSSFVVFGGGTKLTVL | 18.5 |
| 1-33 (antibody, V domains shown) VH: EVQLLESGGGLVQPGGSLRLSCAASGFTFSSYAMIWVRQAPGKGLEWVSAISGSGGSTFYADSVKGRFTISRDNSKNTLYLQMNSLRAEDTAVYYCTRPPYGDYGDYWGQGTLVTVSS VL: QSALTQPASVSGSPGQSITISCTGTSSDVGSYNLLSWYQQHPGKAPKLMIYEASKRPSGVSNRFSGSKSGNTASLTISGLQAEDEADYYCCSYAGSRTPVVFGGGTKLTVL | 17.6 |
